Kindly supply the reported aptazyme ON/OFF ratio values for the records listed here.
B1: Pistol ribozyme (parent)
chain: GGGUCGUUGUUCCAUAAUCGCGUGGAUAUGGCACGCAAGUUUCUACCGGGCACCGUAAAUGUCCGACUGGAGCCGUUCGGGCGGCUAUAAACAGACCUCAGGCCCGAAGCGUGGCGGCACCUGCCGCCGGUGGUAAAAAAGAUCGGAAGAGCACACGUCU

# Variants of: B1
# protocol-summary: aptazyme ON/OFF ratio, guanine; higher = stronger switching; co-transcriptional cleavage with and without guanine
// return just the number, without any unit appended

Exercise: Which aptazyme ON/OFF ratio value is on record for U7A U8A G9C U10G U11G C13A ?
Key: 1.28

Exercise: // same read-out, input: U7C G9U C12U C13G
Key: 1.1

Exercise: Next entry: U7A U8A G9C U10C U11G C12G
Key: 1.09

Exercise: Thanks! And U8A U10G U11A C12U C13U ?
Key: 1.31

Exercise: Repeat for the following variant: U7G U8G G9U U10C U11C C12G C13G
Key: 1.12

Exercise: Please answer likewise for U7C U8G U11G C12A
Key: 1.29

Exercise: What about this variant? U7A U8G G9C U11G C12U C13A
Key: 1.44

Exercise: Next: U7G U10A U11C C12A C13U
Key: 1.18

Exercise: Try this variant too: U7A U8G G9C U11A C12A C13U
Key: 1.47

Exercise: Would you kindly repeat that for U7A G9U U11A C12U C13A ?
Key: 1.41

Exercise: Now the same for U8C U10A C12A
Key: 1.29
